The origin of these recorded values is paper PMC6413085.

# Run description: Pharmacokinetic study of DPTM in rats after i.v., i.m. and p.o. administration (HPLC-MS/MS, non-compartmental)
# Assay type: in vivo
# Measurement setup: Sprague-Dawley, plasma, po; rat, p.o., 10 mg/kg; read-out: MRT0–t
Reported metric: MRT last
Please answer in the form of a number followed by its unit of measurement.

(Q) Entry under review: C=CC1(C)CC(OC(=O)CSc2nc(N)cc(N)n2)C2(C)C(C)CCC3(CCC(=O)C32)C(C)C1O (stereo not shown) [DPTM] . Reported MRT last?
(A) 12.8 h

* * *

# Run description: Pharmacokinetic study of DPTM in rats after i.v., i.m. and p.o. administration (HPLC-MS/MS, non-compartmental)
# Assay type: in vivo
# Measurement setup: Sprague-Dawley, rat, plasma, po, 25 mg/kg, p.o., 25 mg/kg, read-out: t1/2 (converted)
Reported metric: half-life (h)
I only need the number, in h, no unit after it.

(Q) Given C=CC1(C)CC(OC(=O)CSc2nc(N)cc(N)n2)C2(C)C(C)CCC3(CCC(=O)C32)C(C)C1O (stereo not shown) , state its recorded half-life.
(A) 4.4

* * *

# Run description: Pharmacokinetic study of DPTM in rats after i.v., i.m. and p.o. administration (HPLC-MS/MS, non-compartmental)
# Type: in vivo
# Measurement setup: Sprague-Dawley, plasma, im; rat, i.m., 10 mg/kg; read-out: MRT0–t
Reported metric: MRT last
Phrase the answer as number then unit, nothing more needed.

(Q) Give its MRT last value. Item: C=CC1(C)CC(OC(=O)CSc2nc(N)cc(N)n2)C2(C)C(C)CCC3(CCC(=O)C32)C(C)C1O (stereo not shown)
(A) 4.4 h

* * *

# Run description: Pharmacokinetic study of DPTM in rats after i.v., i.m. and p.o. administration (HPLC-MS/MS, non-compartmental)
# Format: in vivo
# Measurement setup: Sprague-Dawley, rat, plasma, im, 10 mg/kg, rat serum, i.m., 10 mg/kg; read-out: AUC0→t
Reported metric: AUC(0-t)
Provide a numeric answer, followed by its unit.

(Q) I would be grateful if you could share the reported AUC(0-t) for C=CC1(C)CC(OC(=O)CSc2nc(N)cc(N)n2)C2(C)C(C)CCC3(CCC(=O)C32)C(C)C1O (stereo not shown) .
(A) 1500 ng·h/mL

* * *

# Run description: Pharmacokinetic study of DPTM in rats after i.v., i.m. and p.o. administration (HPLC-MS/MS, non-compartmental)
# Format: in vivo
# Measurement setup: Sprague-Dawley, plasma, iv; rat, i.v., 25 mg/kg; read-out: Vss
# Protocol: After administration of three i.v., i.m. and p.o. dose (10, 25 and 75 mg/kg) of DPTM to rats, the pharmacokinetic profiles of DPTM were quantified by the validated HPLC-MS/MS methods. […] Pharmacokinetic parameters, including maximum plasma concentration (Cmax), time (Tmax), area under the plasma concentration versus time curve from zero to last sampling time (AUC0−t) and elimination half-life (t1/2) were calculated using WinNonlin software (version 2.1, Pharsight, Mountain View, CA, USA). […]
Reported metric: Vd (L/kg)
Number in L/kg, nothing else.

(Q) Look up Vd: C=CC1(C)CC(OC(=O)CSc2nc(N)cc(N)n2)C2(C)C(C)CCC3(CCC(=O)C32)C(C)C1O (stereo not shown)
(A) 0.2
